# Target of assay: BIR3 domain of XIAP (human, residues 253-347, N-terminal His tag) (human)
# Sequence (chain, as listed by the source): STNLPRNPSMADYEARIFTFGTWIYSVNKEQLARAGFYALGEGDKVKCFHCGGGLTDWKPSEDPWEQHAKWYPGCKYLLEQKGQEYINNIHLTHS
# Protocol description: ITC
Measurement label: Kd (nM)

AVPF	175

Each recorded value in this set is attributed to patent US20200345804A1.
